target_entity: HDAC1 enzyme (Homo sapiens)
Construct: transducing full length HDAC1 and HDAC6 genes into Sf-9 insect cells; GST; purchased SignalChem; host or cells: Sf-9 insect cells
Sequence (Q13547 whole entry): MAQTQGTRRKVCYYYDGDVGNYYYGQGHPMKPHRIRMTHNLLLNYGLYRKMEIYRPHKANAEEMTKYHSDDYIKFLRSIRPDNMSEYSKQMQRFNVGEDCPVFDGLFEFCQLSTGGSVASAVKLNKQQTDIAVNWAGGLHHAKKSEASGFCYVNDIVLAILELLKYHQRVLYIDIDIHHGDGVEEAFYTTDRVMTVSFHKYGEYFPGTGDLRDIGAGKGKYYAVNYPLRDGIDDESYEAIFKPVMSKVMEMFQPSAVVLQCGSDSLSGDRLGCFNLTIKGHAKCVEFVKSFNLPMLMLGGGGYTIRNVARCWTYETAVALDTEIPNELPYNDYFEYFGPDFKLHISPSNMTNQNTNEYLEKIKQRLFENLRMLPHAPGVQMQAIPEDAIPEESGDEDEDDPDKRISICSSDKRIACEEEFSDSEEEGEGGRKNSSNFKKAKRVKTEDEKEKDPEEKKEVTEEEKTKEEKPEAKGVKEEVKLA
experimental_protocol: HDAC1 enzyme inhibitory assay (HDAC-Glo I/II Assay kit)
Format: biochemical
experimental_parameters: 1 μM test compound; wells without enzyme = 100% inhibition; read-out: HDAC1 inhibitory rate (%) (1 μM)
Please respond with reported inhibition at 1 µM for every item in the list.
Give just the numeric value; % need not be written.

Note inhibition at 1 µM for the compound shown: COc1ncccc1CN1Cc2ccc(-c3noc(C(F)(F)F)n3)cc2C1=O
19

Output inhibition at 1 µM of C[C@H](c1ccccc1)N1Cc2ccc(-c3noc(C(F)(F)F)n3)cc2C1=O
17

Using known records, supply inhibition at 1 µM for CC(c1ccccn1)N1Cc2ccc(-c3noc(C(F)(F)F)n3)cc2C1=O (centres unmarked)
16

Complete the entry with inhibition at 1 µM for C[C@@H](c1ccc(F)cc1F)N1Cc2ccc(-c3noc(C(F)(F)F)n3)cc2C1=O
12

Specify inhibition at 1 µM for O=C1c2cc(-c3noc(C(F)(F)F)n3)ccc2CN1Cc1c(F)cccc1F and stop.
21

Output measured inhibition at 1 µM for this item: Cc1cc(CN2Cc3ccc(-c4noc(C(F)(F)F)n4)cc3C2=O)nn1C
23

Answer with reported inhibition at 1 µM of C[C@@H](c1cccc2ccccc12)N1Cc2ccc(-c3noc(C(F)(F)F)n3)cc2C1=O
3

Provide measured inhibition at 1 µM value, entry: COc1cc(F)ccc1[C@H](C)N1Cc2ccc(-c3noc(C(F)(F)F)n3)cc2C1=O
16

====

target_entity: HDAC6 enzyme (Homo sapiens, UniProt Q9UBN7)
Construct: transducing full length HDAC1 and HDAC6 genes into Sf-9 insect cells; GST; purchased SignalChem; host or cells: Sf-9 insect cells
Sequence (Q9UBN7 whole entry): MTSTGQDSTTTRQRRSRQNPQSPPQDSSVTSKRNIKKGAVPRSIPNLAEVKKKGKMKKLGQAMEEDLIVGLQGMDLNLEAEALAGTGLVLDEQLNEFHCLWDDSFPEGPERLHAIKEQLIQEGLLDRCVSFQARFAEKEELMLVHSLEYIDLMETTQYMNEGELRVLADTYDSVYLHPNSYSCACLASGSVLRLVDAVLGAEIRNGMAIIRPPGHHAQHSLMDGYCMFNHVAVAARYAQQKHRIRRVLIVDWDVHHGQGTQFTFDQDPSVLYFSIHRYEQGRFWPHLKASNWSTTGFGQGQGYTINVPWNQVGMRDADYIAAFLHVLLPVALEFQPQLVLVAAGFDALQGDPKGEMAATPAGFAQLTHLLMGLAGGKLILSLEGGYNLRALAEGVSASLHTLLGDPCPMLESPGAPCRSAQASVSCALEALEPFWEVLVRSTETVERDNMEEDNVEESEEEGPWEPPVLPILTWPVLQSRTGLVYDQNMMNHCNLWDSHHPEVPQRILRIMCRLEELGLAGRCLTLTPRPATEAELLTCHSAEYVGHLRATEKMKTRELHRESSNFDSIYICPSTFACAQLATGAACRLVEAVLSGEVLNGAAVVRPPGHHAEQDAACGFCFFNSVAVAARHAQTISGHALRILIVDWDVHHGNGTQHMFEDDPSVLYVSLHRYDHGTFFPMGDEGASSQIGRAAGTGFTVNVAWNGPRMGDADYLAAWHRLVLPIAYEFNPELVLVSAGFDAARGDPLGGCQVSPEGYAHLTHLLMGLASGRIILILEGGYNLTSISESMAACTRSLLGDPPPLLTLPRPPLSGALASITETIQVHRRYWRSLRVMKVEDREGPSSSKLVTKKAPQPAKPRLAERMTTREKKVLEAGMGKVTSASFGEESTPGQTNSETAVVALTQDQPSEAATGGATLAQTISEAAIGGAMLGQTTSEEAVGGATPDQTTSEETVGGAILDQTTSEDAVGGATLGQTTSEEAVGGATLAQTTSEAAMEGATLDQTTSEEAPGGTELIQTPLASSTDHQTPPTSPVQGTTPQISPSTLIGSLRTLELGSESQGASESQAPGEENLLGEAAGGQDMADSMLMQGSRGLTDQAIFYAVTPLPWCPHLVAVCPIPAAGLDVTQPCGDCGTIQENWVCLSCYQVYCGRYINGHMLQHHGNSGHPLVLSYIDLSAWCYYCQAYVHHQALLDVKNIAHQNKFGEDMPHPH
experimental_protocol: HDAC6 enzyme inhibitory assay (HDAC-Glo I/II Assay kit)
Format: biochemical
experimental_parameters: 1 μM test compound; wells without enzyme = 100% inhibition; read-out: HDAC6 inhibitory rate (%) (1 μM)
Procedure: HDAC1/6 Enzyme Inhibitory Assay HDAC1 enzyme and HDAC6 enzyme each prepared by transducing full length HDAC1 and HDAC6 genes into Sf-9 insect cells and purifying by GST affinity column were purchased from SignalChem. Using these enzymes, HDAC1 and/or HDAC6 enzyme inhibitory activities of the compound of the present invention were evaluated. […] After reacting at room temperature for 20 min, luminescence level was measured using plate reader Envision (PerkinElmer). […]
For each of the compounds below, state its inhibition at 1 µM.
Answer in %, number only, no unit symbol.

Provide inhibition at 1 µM, recorded with HDAC6 enzyme (Homo sapiens, UniProt Q9UBN7), of COc1cc(F)ccc1[C@H](C)N1Cc2ccc(-c3noc(C(F)(F)F)n3)cc2C1=O
95

Enter measured inhibition at 1 µM, system HDAC6 enzyme (Homo sapiens, UniProt Q9UBN7), for the compound shown: C[C@@H](c1cccc2ccccc12)N1Cc2ccc(-c3noc(C(F)(F)F)n3)cc2C1=O
92

Print HDAC6 enzyme (Homo sapiens, UniProt Q9UBN7) inhibition at 1 µM for C[C@H](c1cccc2ccccc12)N1Cc2ccc(-c3noc(C(F)(F)F)n3)cc2C1=O .
99

Specify the recorded inhibition at 1 µM for O=C1c2cc(-c3noc(C(F)(F)F)n3)ccc2CN1Cc1ccccc1F , system: HDAC6 enzyme (Homo sapiens, UniProt Q9UBN7).
97

Provide measured inhibition at 1 µM on HDAC6 enzyme (Homo sapiens, UniProt Q9UBN7) for O=C1c2cc(-c3noc(C(F)(F)F)n3)cnc2CN1Cc1ccccc1 please.
101

Report inhibition at 1 µM under test system HDAC6 enzyme (Homo sapiens, UniProt Q9UBN7) for C[C@@H](c1ccc(F)cc1)N1Cc2ccc(-c3noc(C(F)(F)F)n3)cc2C1=O .
90

System HDAC6 enzyme (Homo sapiens, UniProt Q9UBN7). Read-out inhibition at 1 µM. Item C[C@@H](c1ccccc1F)N1Cc2ccc(-c3noc(C(F)(F)F)n3)cc2C1=O . Report value.
95

Enter measured inhibition at 1 µM, system HDAC6 enzyme (Homo sapiens, UniProt Q9UBN7), for the compound shown: CC(c1cccnc1)N1Cc2ncc(-c3noc(C(F)(F)F)n3)cc2C1=O (stereo not drawn)
97

// output inhibition at 1 µM; input CC(c1ccccc1)N1Cc2ncc(-c3noc(C(F)(F)F)n3)cc2C1=O (stereo not drawn) ; system HDAC6 enzyme (Homo sapiens, UniProt Q9UBN7)
100

// fetch inhibition at 1 µM; item: C[C@@H](c1ccc(F)cc1F)N1Cc2ccc(-c3noc(C(F)(F)F)n3)cc2C1=O ; system: HDAC6 enzyme (Homo sapiens, UniProt Q9UBN7)
95

Report inhibition at 1 µM under test system HDAC6 enzyme (Homo sapiens, UniProt Q9UBN7) for COc1cccc([C@H](C)N2Cc3ccc(-c4noc(C(F)(F)F)n4)cc3C2=O)c1 .
99

Quote HDAC6 enzyme (Homo sapiens, UniProt Q9UBN7) inhibition at 1 µM for entry COc1ccc([C@H](C)N2Cc3ccc(-c4noc(C(F)(F)F)n4)cc3C2=O)cc1 .
91

GET inhibition at 1 µM | system: HDAC6 enzyme (Homo sapiens, UniProt Q9UBN7) | item: O=C1c2cc(-c3noc(C(F)(F)F)n3)ccc2CN1Cc1ccccc1Cl
94

Given N#Cc1cccc(CN2Cc3ccc(-c4noc(C(F)(F)F)n4)cc3C2=O)c1 , report its inhibition at 1 µM on HDAC6 enzyme (Homo sapiens, UniProt Q9UBN7).
95

Name the value of inhibition at 1 µM reported for O=C1c2cc(-c3noc(C(F)(F)F)n3)ccc2CN1Cc1cccc(Oc2ccccc2)c1 when tested on HDAC6 enzyme (Homo sapiens, UniProt Q9UBN7).
28
